- Tested on: kynurenine production in HeLa cells
- protocol: Inhibition of kynurenine production in HeLa cells
- Format: cell-based, human
- measurement_context: Homo sapiens, HeLa, 48 h, HeLa cells, human IFN-γ 50 ng/mL, kynurenine read at 480 nm, read-out: IC50
readout_name: IC50 (nM)

- molecule: "CC(C)CN(c1ccc(C2(C(=O)O)CCC2)cc1Nc1cncnc1)C1CCCCC1 [Compound 54]"
  readout_name: "IC50"
  reported_measurement: 0.6
- molecule: "CC(C)CN(c1ccc(C2(C(=O)O)CCC2)cc1Nc1ccc(Cl)cc1F)C1CCOCC1 [Compound 88]"
  readout_name: "IC50"
  reported_measurement: 1.7
- molecule: "CC(C)CN(CC(C)C)c1ncc(C2(C(=O)O)CCC2)cc1Nc1ccc(C#N)cc1 [Compound 93]"
  readout_name: "IC50"
  reported_measurement: 0.3
- molecule: "CC(C)CN(c1ccc(C2(C(=O)O)CCCC2)cc1NC(=O)Nc1ccc(F)cc1F)C1CCC(F)(F)CC1 [Compound 12]"
  readout_name: "IC50"
  reported_measurement: 0.5

----------
- System: kynurenine production in HeLa cells
- protocol: Inhibition of kynurenine production in HeLa cells
- Format: cell-based, human
- measurement_context: Homo sapiens, HeLa, 48 h, HeLa cells, human IFN-γ 50 ng/mL, kynurenine read at 480 nm, read-out: IC50
pIC50: −log10 of the molar value.

- compound: "CC(C)N(CC1CC1)c1ncc(C2(C(=O)O)CCC2)cc1Nc1ccc(Cl)cn1"
  tested_on: "kynurenine production in HeLa cells"
  relational_operator: "="
  pIC50: 9.10
- compound: "CC(C)CN(c1ccc(C2(C(=O)O)CCC2)cc1Nc1ccc(Cl)cc1)C1CCOCC1"
  tested_on: "kynurenine production in HeLa cells"
  relational_operator: "="
  pIC50: 9.70
- compound: "CCOc1ncc(Nc2cc(CC(=O)O)ccc2N(CC(C)C)C2CCOCC2)cn1"
  tested_on: "kynurenine production in HeLa cells"
  relational_operator: "<"
  pIC50: 6.50
- compound: "CC(C)CN(CC(C)C)c1ccc(CC(=O)O)cc1NC(=O)Nc1ccc(F)cc1F"
  tested_on: "kynurenine production in HeLa cells"
  relational_operator: "="
  pIC50: 6.89
- compound: "CCOc1ncc(Nc2cc(C(C)(C)C(=O)O)ccc2N(CC2CC2)C(C)C)cn1"
  tested_on: "kynurenine production in HeLa cells"
  relational_operator: "="
  pIC50: 7.60
- compound: "CCOc1ncc(Nc2cc(C3(C(=O)O)CCC3)ccc2N(CC(C)C)C2CCOCC2)cn1"
  tested_on: "kynurenine production in HeLa cells"
  relational_operator: "="
  pIC50: 9.52
- compound: "CC(C)CN(c1ccc(C2(C(=O)O)CCC2)cc1Nc1ccc(Cl)cc1)C1CCCCC1"
  tested_on: "kynurenine production in HeLa cells"
  relational_operator: "="
  pIC50: 9.52
- compound: "CCN(c1ccc(C2(C(=O)O)CCC2)cc1NC(=O)Nc1ccc(F)cc1F)C1CCCCC1"
  tested_on: "kynurenine production in HeLa cells"
  relational_operator: "="
  pIC50: 9.30
- compound: "COCCN(c1ccc(C2(C(=O)O)CCC2)cc1NC(=O)Nc1ccc(F)cc1F)C1CCCCC1"
  tested_on: "kynurenine production in HeLa cells"
  relational_operator: "="
  pIC50: 8.68
- compound: "CCC(C(=O)O)c1ccc(N(CC(C)C)C2CCOCC2)c(Nc2ccc(C#N)cc2)c1 (centres unmarked) [Compound 70A]"
  tested_on: "kynurenine production in HeLa cells"
  relational_operator: "="
  pIC50: 9.40
- compound: "CC(C)CN(CC(C)C)c1ccc(C2(C(=O)O)CCC2)cc1Nc1ccc(Cl)cn1"
  tested_on: "kynurenine production in HeLa cells"
  relational_operator: "="
  pIC50: 9.52
- compound: "CC(C)CN(c1ccc(C2(C(=O)O)CCCC2)cc1NC(=O)Nc1ccc(F)cc1F)C1CCCCC1"
  tested_on: "kynurenine production in HeLa cells"
  relational_operator: "="
  pIC50: 9.05
- compound: "CC(C)CN(c1ccc(CC(=O)O)cc1Nc1ccc(C#N)cc1)C1CCCCC1"
  tested_on: "kynurenine production in HeLa cells"
  relational_operator: "="
  pIC50: 8.41
- compound: "CC(C)CN(c1ccc(SC(C)(C)C(=O)O)cc1NC(=O)Nc1ccc(F)cc1F)C1CCCCC1"
  tested_on: "kynurenine production in HeLa cells"
  relational_operator: "="
  pIC50: 8.19
